The following compounds are listed with their measured ΔTm values.
assay-target: Transcriptional enhancer factor TEF-3 (Homo sapiens)
Sequence (Q15561 whole entry, the tested form may be a part): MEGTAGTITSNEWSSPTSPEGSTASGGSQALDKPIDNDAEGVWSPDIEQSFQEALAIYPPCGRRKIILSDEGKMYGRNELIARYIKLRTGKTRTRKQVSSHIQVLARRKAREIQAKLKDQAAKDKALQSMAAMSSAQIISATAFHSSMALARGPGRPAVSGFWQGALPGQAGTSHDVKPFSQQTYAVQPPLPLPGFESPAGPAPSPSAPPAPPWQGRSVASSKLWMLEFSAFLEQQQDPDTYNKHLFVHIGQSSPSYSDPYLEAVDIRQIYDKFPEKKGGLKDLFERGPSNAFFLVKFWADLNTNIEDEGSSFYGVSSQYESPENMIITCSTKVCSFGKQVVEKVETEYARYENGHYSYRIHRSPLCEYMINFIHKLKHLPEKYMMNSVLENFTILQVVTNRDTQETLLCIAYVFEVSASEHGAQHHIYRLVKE
measurement-description: Binding affinity to human TEAD4 (217 to 434 residues) expressed in Escherichia coli BL21 Star (DE3) assessed as change in melting temperature incubated for 2 hr by measuring tryptophane fluorescence by Nano Differential scanning fluorometry
measure: ΔTm (°C)

| query-smiles | assay-target | measured |
| --- | --- | --- |
| Cn1cc2c3cc(C(=O)O)ccc3n(-c3ccc(C(F)(F)F)cc3)c2n1 | Transcriptional enhancer factor TEF-3 (Homo sapiens) | 0.4 |
| CNS(=O)(=O)c1ccc(Nc2ccc(C(F)(F)F)cc2)c(-c2cn(C)cn2)c1 | Transcriptional enhancer factor TEF-3 (Homo sapiens) | 3.5 |
| C[C@H](NC(=O)c1ccc2c(-c3ccc(C(F)(F)F)cc3)cccc2c1)c1cccc(N)n1 | Transcriptional enhancer factor TEF-3 (Homo sapiens) | 1.3 |
| CNS(=O)(=O)c1ccc(NCc2ccccc2)c(-c2cn(C)cn2)c1 | Transcriptional enhancer factor TEF-3 (Homo sapiens) | -0.1 |
